assay: chemical genetic growth profiling, strain panel (AID 1159580);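 further: tested at 20 µM; growth read once vehicle control cultures reached saturation at 30 °C; 1 = growth at the plate median or of vehicle wells; lower values mean less growth of the strain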; conditions: S. cerevisiae deletion strains, growth OD, locus YAL040C, strain CLN3, stronger effect = lower value
About 2,000 (36%) of roughly 5,500 compounds were called active. Roughly 18% stayed inconclusive and do not appear here. The list shows a part of the results.
Reported values of normalized growth for individual entries
endpoint-label: normalized growth

* NC(=O)c1ccc(OCC(O)CN2CC=C(c3ccc(F)cc3)CC2)cc1 (stereo not given) | 1.06 (inactive)
* OC[C@H]1O[C@@H](n2cnc3c(NC4CCCC4)ncnc32)C(O)[C@H]1O (stereo not given in full) | 0.989 (inactive)
* COc1ccccc1N1CCN(CCN(C(=O)c2ccc(F)cc2)c2ccccn2)CC1 | 1.01 (inactive)
* CCCN(CC1CC1)c1nc(C)nc(Nc2c(Cl)cc(Cl)cc2Cl)c1Cl | 1.06 (inactive)
* N#C/C(=C\c1c[nH]c2ccccc12)C(=O)c1ccc(O)c(O)c1 | 0.987 (inactive)

Numbers sourced from PubChem BioAssay AID1159580.
